# Measured Target: USP8^CD (purified catalytic domain of USP8) (Homo sapiens, UniProt P40818)
# Construct: the purified catalytic domain of USP8 (USP8^CD, in-house purified); made in house; host or cells: E. coli BL21 Gold
# Sequence (P40818 777-1109 limits assumed): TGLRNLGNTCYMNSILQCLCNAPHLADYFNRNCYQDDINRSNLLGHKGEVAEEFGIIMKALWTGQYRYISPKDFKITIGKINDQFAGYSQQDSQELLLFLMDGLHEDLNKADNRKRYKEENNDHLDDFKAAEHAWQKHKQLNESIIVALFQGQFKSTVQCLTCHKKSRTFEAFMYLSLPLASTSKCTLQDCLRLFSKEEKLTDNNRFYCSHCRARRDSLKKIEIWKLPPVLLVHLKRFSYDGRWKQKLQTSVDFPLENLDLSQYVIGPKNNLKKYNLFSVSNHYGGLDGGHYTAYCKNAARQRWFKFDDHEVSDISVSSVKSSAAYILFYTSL
# Measurement Notes: Inhibition of purified USP8^CD enzymatic activity (Ub-AMC or Ub-Rho substrate)
# Format: biochemical
# Condition Parameters: 25 μM compound; Table 1b
# Method: USP2CD or USP8CD were expressed in E. coli BL21 Gold. Cells were grown in LB Miller to mid-log phase and induced by addition of 0.5 mM IPTG for USP2CD for 5 h at 20° C., while 1 mM IPTG was added for USP8CD for 3 h at 37° C. Then, cells were harvested and frozen at −80° C. For His-tagged USP8CD, cells were resuspended in buffer A (50 mM TRIS pH 8.0, 500 mM NaCl, 2 mM Imidazole) and lysed using a sonicator. […]
Rule: yes for inhibition at 25 µM not less than 90%, no for anything less.

O=C1c2ccccc2C(=O)c2nc(CS(=O)(=O)c3cccc(Cl)c3)c(CS(=O)(=O)c3cccc(Cl)c3)nc21 no
CCCCCS(=O)(=O)Cc1nc2c(nc1CS(=O)(=O)CCCCC)C(=O)c1ccccc1C2=O yes

Consider the record given below.
Decide: inhibition at 25 µM of CS(=O)(=O)Cc1nc2c(nc1CS(C)(=O)=O)C(=O)c1ccccc1C2=O >= 90%?
yes

----------
Reported inhibition at 5 µM by item:
# Measured Target: USP8^CD (purified catalytic domain of USP8) (Homo sapiens, UniProt P40818)
# Construct: the purified catalytic domain of USP8 (USP8^CD, in-house purified); made in house; host or cells: E. coli BL21 Gold
# Measurement Notes: Inhibition of purified USP8^CD enzymatic activity (Ub-AMC or Ub-Rho substrate)
# Assay type: biochemical
# Condition Parameters: 5 μM compound; Table 1b
Quick note: give the figure in %, leave out the unit.

O=C1c2ccccc2C(=O)c2nc(CS(=O)(=O)c3cccc(Cl)c3)c(CS(=O)(=O)c3cccc(Cl)c3)nc21 51
O=C1c2ccccc2C(=O)c2nc(CS(=O)(=O)c3cccc(C(F)(F)F)c3)c(CS(=O)(=O)c3cccc(C(F)(F)F)c3)nc21 33
O=C1c2ccccc2C(=O)c2nc(CS(=O)(=O)c3ccccc3F)c(CS(=O)(=O)c3ccccc3F)nc21 103

Enter recorded inhibition at 5 µM with USP8^CD (purified catalytic domain of USP8) (Homo sapiens, UniProt P40818) for CCCCCS(=O)(=O)Cc1nc2c(nc1CS(=O)(=O)CCCCC)C(=O)c1ccccc1C2=O here.
94

Enter recorded inhibition at 5 µM with USP8^CD (purified catalytic domain of USP8) (Homo sapiens, UniProt P40818) for O=C1c2ccccc2C(=O)c2nc(CS(=O)(=O)c3ccc(Br)s3)c(CS(=O)(=O)c3ccc(Br)s3)nc21 here.
56

Enter recorded inhibition at 5 µM with USP8^CD (purified catalytic domain of USP8) (Homo sapiens, UniProt P40818) for O=C1c2ccccc2C(=O)c2nc(CS(=O)(=O)c3ccc(F)c(F)c3F)c(CS(=O)(=O)c3ccc(F)c(F)c3F)nc21 here.
92

Enter recorded inhibition at 5 µM with USP8^CD (purified catalytic domain of USP8) (Homo sapiens, UniProt P40818) for CS(=O)(=O)Cc1nc2c(nc1CS(C)(=O)=O)C(=O)c1ccccc1C2=O here.
100
